# credit: ChEMBL document CHEMBL3301361

Experiment: physchem
Details: octan-1-ol/water, pH 7.4, LogD7.4

Compound | logD
O=C(NC[C@@H](O)CN1CCC(Oc2ccc(Cl)c(Cl)c2)CC1)c1n[nH]c2ccccc12 | 2.95
O=C(NC1CCCCC1)C1CCCN(S(=O)(=O)c2cccs2)C1 (stereo not given) | 2.93
O=C(Cc1ccccn1)c1ccc(Cl)cc1 | 2.96
CCOc1cc2nnc(C(N)=O)c(Nc3cc(C)ccc3F)c2cc1N1CCN(C)CC1 | 3.02
Cc1cccc(NS(=O)(=O)c2cccc3nonc23)c1 | 3
O=C(NCC12CC3CC(CC(C3)C1)C2)c1c(Cl)ccc2nc(N3CCC[C@H](NCCc4nnn[nH]4)C3)ccc12 | 3.08
CC(=O)Nc1ccc(CNc2[nH]nc3ccnc(Oc4ccccc4)c23)cc1 | 3.03
O=C(O)CCc1ccc(OCc2cccc(Br)c2)cc1 | 1.67
CC(C)(C)c1cc2nc3c(c(O)n2n1)CN(Cc1ccccc1)C3=O | 1.9
O=C(NCC1CCCCN1)c1cc(OCC(F)(F)F)ccc1OCC(F)(F)F (stereo not given) [FLECAINIDE] | 1.13
Cc1ccc(NC(=O)c2cccc(OCC(C)C)c2)cc1C(=O)Nc1cccnc1 | 2.81
Cc1ccc2c(c1)c(-c1ccnc3c(S(C)(=O)=O)cccc13)c(C)n2CC(=O)O | -0.34
O=C(Cc1ccccc1)Nc1nccs1 | 2.5
Clc1ccccc1CNC[C@H]1CC[C@H](CNCc2ccccc2Cl)CC1 | 2.74
Fc1ccc(C(COCc2cc(C(F)(F)F)cc(C(F)(F)F)c2)N2CCNCC2)cc1 (stereo not given) | 3
CO[C@H]1CN(CCn2c(=O)ccc3ccc(C#N)cc32)CC[C@H]1NCc1ccc2c(n1)NC(=O)CO2 | 0.32
CS(=O)(=O)c1ccc(-c2cnc(N)c(-c3ccc(C(F)(F)F)nc3)c2)cc1 | 2.4
Cc1cnc2nc(SCc3cccc(F)c3F)nc(N[C@H](C)CO)c2n1 | 3.5
CNCc1cccc(-c2ccc3c(N4CCOCC4)nc(N4C[C@@H](C)O[C@@H](C)C4)nc3n2)c1 | 1.26
CC(=O)NC[C@H]1CN(c2ccc(-n3cnc(C#N)c3)c(F)c2)C(=O)O1 | 1.51
Cc1ccc(NC(=O)c2cccnc2)cc1-n1cnc2ccc(N3CCN(C)CC3)cc2c1=O | 1.5
C[C@@H]1CN(C(=O)OCC(F)(F)F)CCN1c1ncc(OCc2ccncc2C#N)cn1 | 3
CC(C)C(NC(=O)Cn1c(-c2ccccc2)cc2c(O)nc(O)nc2c1=O)C(=O)C(F)(F)F (stereo not given) | 1.88
O=S(=O)(NCC(c1ccccc1)N1CCCCCC1)c1ccc(F)c(F)c1 (stereo not given) | 2.84
CC(C)Cn1c(=O)[nH]c(=O)c2c(C(=O)N3CCC3)c(Cc3ccccc3C(F)(F)F)sc21 | 3

* * *

Assay: physchem
Conditions: octan-1-ol/water, pH 7.4, LogD7.4
Kindly note that classification relies on logD with these boundaries: group 1: < 2; group 2: ≥ 2 and < 3; group 3: ≥ 3

Molecule | Group
CCOc1cc2ncc(C(N)=O)c(Nc3ccc(F)cc3F)c2cc1N1CCC(O)CC1 | group 2
Nc1ccc(OCCc2ccccc2)cc1 | group 2
NC(=O)c1ccc(N(C(N)=O)c2c(F)cccc2F)nc1-c1ccc(F)cc1F [VX-702] | group 1
O=C(O)c1ccc(Nc2ncc(Br)c(Nc3ccccc3)n2)cc1 | group 1
COc1cc2ncnc(Nc3cc(NC(=O)c4cccc(N(C)C)c4)ccc3Cl)c2cc1OC | group 3
CN1CCCN(C(c2ccccc2)c2ccc(Cl)cc2)CC1 (centres undefined) [HOMOCHLORCYCLIZINE] | group 2
Cc1cccc(C(=O)N2CCC(C(=O)c3ccc(F)cc3)CC2)c1 | group 3
O=C(NC[C@@H](O)CN1CCC(Oc2ccc(Cl)c(Cl)c2)CC1)c1c[nH]nc1C1CC1 | group 3
O=C(Nc1ccc(N2CCOCC2)nc1)c1nnc(Nc2ccccc2)o1 | group 2
COc1ccnc(CCc2nc3ncccc3[nH]2)c1 | group 1
CCOc1ccccc1-c1ccc(-c2nc3ccc(F)cc3c(N[C@H](C)C(=O)O)c2C#N)cc1 | group 2
COc1cccc(Nc2nc(NCC3CCCO3)c3ccccc3n2)c1 (centres undefined) | group 3
FC(F)(F)c1nnc2ccc(N3CCCCCC3)nn12 | group 3
CN(C(=O)NCc1ccccc1)C1CCN(CCC(c2ccccc2)c2ccccc2)CC1 | group 3
C[C@H](Oc1ccc(S(C)(=O)=O)cc1C(=O)N1CCN(c2ncc(C(F)(F)F)cc2F)CC1)C(F)(F)F [BITOPERTIN] | group 3
O=c1[nH]c2c(O)ccc([C@@H](O)CNCCCOCCOCCc3ccccc3)c2s1 | group 1
CC(C)C[C@H](NC(=O)N1CCOCC1)C(=O)NCC#N | group 1
CN(C)C(=O)[C@H](O)[C@H](Cc1ccccc1)NC(=O)c1cc2cc(Cl)ccc2[nH]1 | group 3
O=C(NCC12CC3CC(CC(C3)C1)C2)c1cccc(Cl)c1Cl | group 3
CCCCN(CCNC[C@H](O)c1ccc(O)c2[nH]c(=O)sc12)C(=O)CCOCCc1ccccc1 | group 2
O=C(O)c1cccc(-c2ccc3c(C(=O)NCC45CC6CC(CC(C6)C4)C5)c(Cl)ccc3n2)c1 | group 2
